# credit: PubChem BioAssay (NCI)

- Test details: NCI Yeast Anticancer Drug Screen. Data for the sgs1 mgt1 strain (AID 161);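 also: 0% = growth of cultures given vehicle only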
- Reported conditions: S. cerevisiae sgs1 mgt1 strain, at 50.0 µM (retest, dose inferred, filed as 5.0), stronger effect = higher value
Compounds without any hit were thinned out: in the full panel of roughly 79,000, 15% have a hit.
Observation type: growth inhibition (%)
A number alone suffices; assume %.

Worked cases, growth inhibition given:
Using the record for C=C1C[C@H]2C=Nc3cc(OCCCOc4cc5c(cc4OC)C(=O)N4CC(=C)C[C@H]4C=N5)c(OC)cc3C(=O)N2C1 , report its growth inhibition.
94

And CCCCCCCCCCCCCCCC1C(N)C(=O)N(C)N1C (stereo not drawn) ?
95

And O=[N+]([O-])C1CCCC(C2=CSC3CCCCC3N2)C1 (stereo not drawn) ?
-2

And CC1(C)N=C(N)N=C(N)N1c1cccc(OCc2cccc(N)c2)c1 ?
1

Next:
Using the record for COc1ccc(C2=CC(=O)C=CC2=O)cc1 , report its growth inhibition.
90

And COc1ccc2c(c1)S(=O)(=O)C(c1ccccc1)=CC2=O ?
99
